# STUDY_TARGET: human DGKα (Homo sapiens)
# Construct: TVMV protease cleavage site (C); Hexa-His (C); made in house; host or cells: Sf9 insect cells (baculovirus, Bac-to-Bac)
# Sequence (P23743 with tags, fused parts or gaps): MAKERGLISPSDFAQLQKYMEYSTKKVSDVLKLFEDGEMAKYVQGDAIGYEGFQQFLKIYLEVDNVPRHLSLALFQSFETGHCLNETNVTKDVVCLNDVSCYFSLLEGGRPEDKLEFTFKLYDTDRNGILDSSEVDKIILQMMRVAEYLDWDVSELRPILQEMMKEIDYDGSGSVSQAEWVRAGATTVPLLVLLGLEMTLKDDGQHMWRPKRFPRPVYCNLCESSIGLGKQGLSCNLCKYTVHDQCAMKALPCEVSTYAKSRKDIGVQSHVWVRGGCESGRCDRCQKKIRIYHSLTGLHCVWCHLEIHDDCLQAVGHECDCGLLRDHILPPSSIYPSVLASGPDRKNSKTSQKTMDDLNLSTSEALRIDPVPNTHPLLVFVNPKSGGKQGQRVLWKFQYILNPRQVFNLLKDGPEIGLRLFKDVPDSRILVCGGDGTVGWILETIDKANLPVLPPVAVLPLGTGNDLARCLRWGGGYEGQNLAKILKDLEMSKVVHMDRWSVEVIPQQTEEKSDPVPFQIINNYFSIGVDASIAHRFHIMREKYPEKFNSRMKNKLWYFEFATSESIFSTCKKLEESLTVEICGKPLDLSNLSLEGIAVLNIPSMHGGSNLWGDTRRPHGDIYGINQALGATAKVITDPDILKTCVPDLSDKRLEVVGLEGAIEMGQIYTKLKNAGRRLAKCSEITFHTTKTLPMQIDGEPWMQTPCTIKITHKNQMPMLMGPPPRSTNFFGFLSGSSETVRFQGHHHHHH
# ASSAY_DETAILS: DGKα LIPGLO assay (extruded liposome substrate), in vitro DGK inhibition
# Assay type: biochemical
# CONDITIONS: liposome (LIPGLO) assay; read-out: DGKa LIPGLO IC50
EXPERIMENTAL_READOUT: pIC50
Give bare numbers, as −log10 of the molar value.

>>> reported_value("Cn1c(=O)cc(N2CCN(C(c3ccc(F)cc3)c3ccc(F)cc3)CC2CF)c2nc(C#N)ccc21 (racemic) [Example 149]")
4.46
>>> reported_value("C[C@@H]1CN(c2cc(=O)n(C)c3ccc(C#N)nc23)[C@@H](C)CN1Cc1ccc(OC(F)(F)F)c(Cl)c1")
5.17
>>> reported_value("CCc1cc(F)ccc1C(c1ccc(F)cc1)N1C[C@H](C)N(c2cc(=O)n(C)c3ccc(OC)nc23)C[C@H]1C (single isomer, unassigned) [Example 234]")
3.62
>>> reported_value("COCC1CN(c2cc(=O)n(C)c3ccc(C#N)nc23)CCN1C(c1ccc(F)cc1)c1ccc(F)cc1 (single isomer, unassigned) [Example 93]")
5.37
>>> reported_value("Cc1c(F)ccc(C(C)N2C[C@H](C)N(c3cc(=O)n(C)c4ccc(C#N)nc34)C[C@H]2C)c1Cl (single isomer, unassigned) [Example 433]")
4.10

Kindly review the next compound as well.
QUERY: pIC50 for COc1cc(F)ccc1C(C)N1C[C@H](C)N(c2cc(=O)n(C)c3ccc(C#N)nc23)C[C@H]1C (single isomer, unassigned) [Example 1236] ?
RESULT: 4.96

* * *

# STUDY_TARGET: human DGKα (Homo sapiens)
# Construct: TVMV protease cleavage site (C); Hexa-His (C); made in house; host or cells: Sf9 insect cells (baculovirus, Bac-to-Bac)
# ASSAY_DETAILS: DGKα LIPGLO assay (extruded liposome substrate), in vitro DGK inhibition
# Assay type: biochemical
# CONDITIONS: liposome (LIPGLO) assay; read-out: DGKa LIPGLO IC50
EXPERIMENTAL_READOUT: pIC50
Give bare numbers, as −log10 of the molar value.

>>> reported_value("C[C@@H]1CN(C(c2ccc(F)cc2)c2ccc(C#N)cc2)[C@@H](CO)CN1c1cc(=O)n(C)c2ccc(C#N)nc12 (single isomer, unassigned) [Example 1177]")
5.00
>>> reported_value("CC[C@H]1CN(C(C)c2ccc(F)cc2F)[C@H](CC)CN1c1cc(=O)n(C)c2ccc(C#N)nc12 (single isomer, unassigned) [Example 1055]")
7.77
>>> reported_value("CC[C@@H]1CN(c2cc(=O)n(C)c3ccc(C#N)nc23)[C@@H](CC)CN1Cc1ccc(F)cc1F")
7.24
>>> reported_value("C[C@@H]1CN(c2cc(=O)n(C)c3ccc(C#N)nc23)[C@@H](C)CN1Cc1ccc(Cl)cc1")
6.51
>>> reported_value("CC(C)Oc1ccc(C(c2cccc(F)c2)N2C[C@H](C)N(c3cc(=O)n(C)c4ccc(C#N)nc34)C[C@H]2C)nc1 (stereo partly drawn) [Example 691]")
5.35

QUERY: pIC50 for CCOC[C@@H]1CN(c2cc(=O)n(C)c3ccc(C#N)nc23)[C@@H](C)CN1C(c1ccc(F)cc1)c1ccc(F)cc1 ?
RESULT: 4.74
